meta.source: patent US20020115867A1

# targetSystem: UniProt:P00797
# Sequence (P00797 67-406): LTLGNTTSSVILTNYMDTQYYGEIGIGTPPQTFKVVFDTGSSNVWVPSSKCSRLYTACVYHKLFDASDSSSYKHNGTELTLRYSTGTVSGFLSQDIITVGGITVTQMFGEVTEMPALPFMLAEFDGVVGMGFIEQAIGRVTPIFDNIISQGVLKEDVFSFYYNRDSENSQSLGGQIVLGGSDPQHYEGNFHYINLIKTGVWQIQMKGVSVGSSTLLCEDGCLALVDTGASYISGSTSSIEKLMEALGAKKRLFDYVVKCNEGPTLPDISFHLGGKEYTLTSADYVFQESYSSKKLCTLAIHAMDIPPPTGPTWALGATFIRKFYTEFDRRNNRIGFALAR
# protocol: Human renin inhibition in vitro
# setupConditions: human plasma angiotensinogen, pH 7.4, 37° C., two hours; angiotensin I by radioimmunoassay
recordedMetric: IC50 (nM)
// note: answer is a bare numeric in nM

For C#CC[C@H](NC(=O)[C@@H](CC(=O)N(C)CCn1ccnc1)Cc1ccccc1)C(=O)N[C@@H](CC1CCCCC1)[C@@H](O)[C@@H](O)CC(C)C (relative stereo) [Example 1] on UniProt:P00797, measured IC50 was 0.18
